Experiment: soluble on expression in E. coli; label from the status in PepcDB or PDB records
measure.name: soluble on expression in E. coli

Previously resolved entries follow.
MIKSALLVLEDGTQFHGRAIGAEGTAVGEVVFNTSMTGYQEILTDPSYSRQIVTLTYPHIGNVGTNASDEESSAVHAQGLVIRDLPLIASNYRNEEGLSEYLKRHNIVAIADIDTRKLTRLLREKGAQNGCIIVGELSDAALALEKAKAFPGLKGMDLAKEVTTKEMYQWLQGSWTLEGDLPAAKQPEDLPFHVVAYDYGVKRNILRMLVDRGCRLTVVPAQTPAEDVLKLNPDGIFLSNGPGDPEPCDYAITAIKRFLETDIPVFGICLGHQLLALASGAKTVKMKFGHHGGNHPVKDLDASCVMITAQNHGFAVDETSLPSNLRTTHVSLFDGSLQGLHRTDKAAFSFQGHPEASPGPHDAAPLFDHFIELIEAYRASSVSLNCSNSHK
not soluble
SGSDVRDLNALLPAVPSLGGGGGCALPVSGAAQWAPVLDFAPPGASAYGSLGGPAPPPAPPPPPPPPPHSFIKQEPSWGGAEPHEEQCLSAFTVHFSGQFTGTAGACRYGPFGPPPPSQASSGQARMFPNAPYLPSCLESQPAIRNQGYSTVTFDGTPSYGHTPSHHAAQFPNHSFKHEDPMGQQGSLGEQQYSVPPPVYGCHTPTDSCTGSQALLLRTPYSSDNLYQMTSQLECMTWNQMNLGATLKG
soluble
MGSDKIHHHHHHVVIGFFKKLFNVRDRNEQAKFTGITTAEKRQQTKPQTPVPAIEVTEHQAVESQLDLSALFYSLLFATPSTTTTGIANNLERSVMQNIEQALSSPQSIAENVLKLPSKILELDKKLGDDNIETQELILLIEQDPLLCVEVLKLCNSPAFKRADTDVSSIQQALVQVGRQQLRQFITACLARELIDIKPIYFRRFGAEIWRHSMQVAFLASELASNEQRDSAFLLGLLHDVGKIAIFKMLVDAFYQAEPGEQPNSILFKQVMTTKSLTLSALLARSWQLSQHFETPLTLLANTNIKPTDGMTLLIWKANIISECSMLLQVDKLPQPALAVLLAQVECSEEDFIELHQKLIQF
not soluble
MSQLTEFISCIPVVNEEQNEEDERGLCKIQIEDGAMLETLDENSLSGLRIEKMLVSEGTGIFSKSSFGINDLRIFTGENIDEESKKYVWYELLKMLTGHKVYIASLDEKVVFTKWTCRMQDDEVWKVVMELESSAIIRKIAELTLHPVKKGEIDLFEMADKLYKDICCVNDSYRNIKESDSSNRNRVEQLARERELLDKLLETRDERTRAMMVTLLNEKKKKIRELHEILRQNNIKLSDDDVLDSA
soluble

Look up and report measured soluble on expression in E. coli for this entry: MGSDKIHHHHHHMSNQLENAKNLYLRGIRDGEIKEVHENYMGASYTQHSTGVPDEKEGFAAFFEDFFKRNPKREINIVRAIEDGNFVFVHVHQKLNDGEAEWVTADIFRSDENGRIVEHWDVIDAYPKTIDQTDPIYADFELTDLDKTEDNKKIVRRFLVDVFQNGEIDKFDDYVAANLIQHNQEIAQGGAAYKDYLVDKAVNYDFVFKVMGQGDYVVAYSKVWIAGQDYAHFDIYRLKDGKIVEHWDNKEVMPDKKDLTNLGKF not soluble

* * *

Experiment: soluble on expression in E. coli; label from the status in PepcDB or PDB records
measure.name: soluble on expression in E. coli

MRGSHHHHHHMSDEEHTFETADAGSSATYPMQCSALRKNGFVVIKSRPCKIVDMSTSKTGKHGHAKVHLVAIDIFTGKKLEDLSPSTHNMEVPVVKRNEYQLLDIDDGFLSLMNMDGDTKDDVKAPEGELGDSLQTAFDEGKDLMVTIISAMGEEAAISFKEAARTD
soluble
MDWIESVKSYIKVVEEGSFNAAAYQLNTSGSAISKRINWLEERVGVQLLTRTTRSVHQTEAGLLFYQRARLQLDQWQHLVDETRAINQTPAGLLKIGATLAVGSKFIIKYLDEFLATYPKIKVQLITTLPGQVPEHNVDVFISRELEQLNTFSYKATHLFEHHSGFFASKDYLDKYGTPNNINELKAHNMLIWGERPIKEIKLTNNKRVTLRGNFATTNPEALFHAAKRGMGILLTSQQMVIDDLQSGALVPILPEITTDHTRVNAYYPTLDYEHTRTQLFIKYLKTKLS
not soluble
MTFFPEIDIQKTKSNAKRKLREYPRWRRIANDVDTQKVTATYSFEPRQSHGVPSKPVERLALNRVSAEQELDAIEQAVSMILEPERRRILYDKYLAPYKKADKVIYTELCMSESFYYDTLDIALLAFAELYREGVLLVEEGVFS
not soluble
GSPGISGGGGGSHIEGYECQPIFLNVLEAIEPGVVCAGHDNNQPDSFAALLSSLNELGERQLVHVVKWAKALPGFRNLHVDDQMAVIQYSWMGLMVFAMGWRSFTNVNSRMLYFAPDLVFNEYRMHKSRMYSQCVRMRHLSQEFGWLQITPQEFLCMKALLLFSIIPVDGLKNQKFFDELRMNYIKELDRIIACKRKNPTSCSRRFYQLTKLLDSVQPIARELHQFTFDLLIKSHMVSVDFPEMMAEIISVQVPKILSGKVKPIYFHTQ
soluble

* * *

Experiment: soluble on expression in E. coli; label from the status in PepcDB or PDB records
measure.name: soluble on expression in E. coli

MKLQLALDELTLPEAMVFMDKVVDDVDIIEVGTPFLIREGVNAIKAIKEKYPHKEVLADAKIMDGGHFESQLLFDAGADYVTVLGVTDVLTIQSCIRAAKEAGKQVVVDMICVDDLPARVRLLEEAGADMLAVHTGTDQQAAGRKPIDDLITMLKVRRKARIAVAGGISSQTVKDYALLGPDVVIVGSAITHAADPAGEARKISQVLLQHH
soluble
MTSKTNMTSNKFAYDFFPWSNDTNSSQQIKNIKPPPKRSNRPTKRTTFTSEQVTLLELEFAKNEYICKDRRGELAQTIELTECQVKTWFQNRRTKKRSSELKFGTACSENKTSTKWYYDSKLLFCYPYKYLGCGEGSNSFESNENCLESCKPADQFSCGGNTGPDGVCFAHGDQGCKKGTVCVMGGMVGFCCDKKIQDEWNKENSPKCLKGQVVQFKQWFGMTPLIGRSCSHNFCPEKSTCVQGKWTAYCCQ
soluble

* * *

Experiment: soluble on expression in E. coli; label from the status in PepcDB or PDB records
measure.name: soluble on expression in E. coli

GMANKVEHRLSEQQMKALTDLPLVFLITHDQSKSWPITHAISWVYAKDETTIRFAIEADSLLVKTLADHPVFTLIFFADQSTYSLTCTDVAAWETTARLPLKVALYEGQIKEVRDILFYGAAVSDRPRVYKTYDEAAAMQLDQQIQDILKG
soluble
MGFFDRLKAGLAKTRERLLKAIPWGGNLEEVLEELEMALLAADVGLSATEEILQEVRASGRKDLKEAVKEKLVGMLEPDERRATLRKLGFNPQKPKPVEPKGRVVLVVGVNGVGKTTTIAKLGRYYQNLGKKVMFCAGDTFRAAGGTQLSEWGKRLSIPVIQGPEGTDPAALAYDAVQAMKARGYDLLFVDTAGRLHTKHNLMEELKKVKRAIAKADPEEPKEVWLVLDAVTGQNGLEQAKKFHEAVGLTGVIVTKLDGTAKGGVLIPIVRTLKVPIKFVGVGEGPDDLQPFDPEAFVEALLED
soluble
MESIGLVEVNSIARGIEAADAMLKAAQVDLLEAKPVCPGKYIVLICGDVAAVQSSVTAGKTMAAHSVLDDFILPNVHPQVLTAISAATPLTLIKALGIIETFSIASLIVAADTAAKTGQVDLVEIRIGMGIGGKSFVTLTGDVASVESSVAAGVMLASERGMLVDKVVIPSPHDHLKRCLC
soluble

* * *

Assay: soluble on expression in E. coli; label from the status in PepcDB or PDB records
measure.name: soluble on expression in E. coli

Illustrative cases are given below, each with its answer.
MSLYEWLNALPKAELHLHLEGTLEPELLFALAERNRIALPWNDVETLRKAYAFNNLQEFLDLYYAGADVLRTEQDFYDLTWAYLQKCKAQNVVHVEPFFDPQTHTDRGIPFEVVLAGIRAALRDGEKLLGIRHGLILSFLRHLSEEQAQKTLDQALPFRDAFIAVGLDSSEVGHPPSKFQRVFDRARSEGFLTVAHAGEEGPPEYIWEALDLLKVERIDHGVRAFEDERLMRRLIDEQIPLTVCPLSNTKLCVFDDMSQHTILDMLERGVKVTVNSDDPAYFGGYVTENFHALQQSLGMTEEQARRLAQNSLDARLVKEGHHHHHH
soluble
AAKEEADSRISPGNIFEEKAKFLVMMESSIYAAKRGDALIAQILILAGRLSKNEAPKEALLFMEKTITGEIDLSVAKNLLIAYMRIRREEKQRDLNSVKNDDAIPSDINIDDLTNT
not soluble
AHHHHHHGSHKLKVSVSFSYGKKEIVKNVEFEGKVGEIIAIIGPNGAGKSTLLKCIAGILKPRGIIEYNGIDLTKLKPKERAKIVGYVPQSSYPEFAFTVEEFVELGTYAGKGDVDEAIRRVGLWEKRKEFITNLSGGEYQLTLIARALAQGGDIMLLDEPTSHLDINHTREIMEILQELKKEKLIIAVFHDLNLAINYADEIIVLKNGETAWKGKSKEISEEVIEATYGIKPRIVREDGIVAVLP
soluble
MEYFNVGKIVNTQGLQGEMRVLSVTDFVEERFKKGQVLALFDEKNQFVMDIEIASHRKQKNFDIIKFKGMYHINDIEKYKGFTLKVAEDQLSDLKDGEFYYHEIIGLDVYEGEELIGKIKEILQPGANDVWVVERHGKRDLLLPYIPPVVLEVDLSNQRVQVELMEGLDDEDLEHHHHHH
soluble
MTKRSDSVAPKERINIKYVPATGDEQAEVELPHKMMVLGDFGLDDSRSLEDRQVMRIDKHTFNNVLNDADVSLAMSVPSALDATPNAELAVNLQFKSIQDFGPDRIARQVPELNKLLQLREALVALKGPLGNVPTFRKQLQQLLNDAHARKQLAQELDLVLEAPKAD
not soluble

Give me measured soluble on expression in E. coli, please, for this sequence: MGSDKIHHHHHHMVLSKFMPHNPKFAAKFAEAAQNAHATAQALVDLLENYTDVERKVQRVLDFEHEGDRITSEVTNLLAESFIVPFDREDILALNAELDDLVDDMEEAASKLSLYRIERPLPQMAQLARVVEQQCALLAQGMPLIEDGRMVDELRQLSQKIRALEDEGDRISDEVARHLYDGVTEVPQMIVAMRSGEILNLIENASDQAQRIARTVESILLKNA not soluble

# return recorded soluble on expression in E. coli for input MAHHHHHHMGTLEAQTQGPGSMNIDAISIGSNPPEDVNVIIEVPVGGQPIKYEMDKKAGALIVDRFLYTPMTYPGNYGFVPHTLSEDGDPIDVLVCNTRPLIPGCVINVRPIGVLVMEDNSGKDEKIIAVPSPHLTRRYEKIHDYTDMPEITLKQIAHFFEHYKDLEPGKWVKIGDWGDEDYARKFIVEAIERAKGK soluble

Provide soluble on expression in E. coli value for the following sequence: MSLKIAITGASGFVGSHLSSQFGGSHTLLPLGRRELSDPTKLSSLLEGVDWIINLAGAPIIAKWSESYKKVLYSSRIETTRSLLLALKECPTKPSLFTSTSAIGIYDNQGTYAEGDLALAQDFLGKLAKDWEEEALKAQDLGIRTVVFRFGVVLGKGGGMMEKLRLPFSLGLGGVIGDGKQKFSWIHLHDIAKAMEFAWSTPSLSGIYNLTAPSPTTNEAFTKLYGSLIHRPTLLPVPLWALQILFGEGAKVLSDGQAAIPERLLQAGFEFEYPTLEKALKEIISEGHHHHHH soluble

Output measured soluble on expression in E. coli for this item: ADQPSPTWGIDRIDQRNLPLDNNYHTDYDGSGVTAFVIDTGVLNTHNEFGGRASSGYDFIDNDYDATDCNGHGTHVAGTIGGSTYGVAKNVNVVGVRVLNCSGSGSNSGVIAGINWVKNNASGPAVANMSLGGGASQATDDAVNAAVAAGITFVVAAGNDNSNACNYSPARAADAITVGSTTSNDSRSSFSNYGTCLDIYAPGSSITSSWYTSNSATNTISGTSMASPHVAGVAALYLDENPNLSPAQVTNLLKTRATADKVTDAKTGSPNKLLFSLA soluble

Input MTRDDDDDEDDEEEEDSGAWGRESYAFDGFHPTEEFGFSFSPRGGMRFHGNFGFDDLVRDFNSIFSEMGAWTLPSHSPELPGPESETPGVRLREGQTLRDSMLKYPDSHQPRIFEGVLESHAKPESSKPAPDWGSQGPFHRLDDTWPVSPHSRAREDKDLDSQVSQEGLGPLLQPQPKSYFKSISVTKITKPDGTVEEHRTVVDGEGRRETTVTHQEAHDSSRSDPDPPRSSALDDPFSILDLLLGRWFRSR , output reported soluble on expression in E. coli. not soluble
